Can you tell me %Inh for the items I'm about to list?
# System: RSK1(Kin.Dom.2-C-terminal)
# Construct: gene RPS6KA1
# TEST_CONTEXT: concentration: 1 μM, replicates: in singlicate; n = 1
Answers are plain numbers, in %.

Use these answered entries as a reference point.
COMPOUND | ENDPOINT_UNIT | %Inh
FC(F)(F)c1cc(Nc2nccc(-c3c(-c4ccc(Cl)cc4)nn4ncccc34)n2)ccc1Cl [GW829351] | % | 28
O=c1cc(N2CCOCC2)nc2n(Cc3cccc(Cl)c3)ccn12 [GSK2296823] | % | 0
Nc1nccc2scc(-c3ccc4c(c3)CCN4C(=O)Cc3cc(F)ccc3F)c12 [GSK2587663] | % | 15
Nc1n[nH]c2nnc(-c3ccccc3)cc12 [SB-517389] | % | 9
CSc1ccc(NC2=C(c3ccccc3Cl)C(=O)NC2=O)cc1 [SB-342411] | % | 15

# map each compound to its %Inh
1. Clc1ccc(-c2cc(-c3c[nH]nc3-c3ccccn3)ccn2)cc1 [GW681251]
2. COc1ccc(NC(=O)Nc2ccc(C)c(-c3ccc(C(=O)Nc4ccncc4)cc3)c2)cc1 [GSK1398475]
3. Fc1cccc(COc2ccc(Nc3ncnc4nn5ccccc5c34)cc2Cl)c1 [GW689066]
4. Cn1ccc2ncnc(Oc3ccc(NC(=O)Nc4cccnc4)c(Cl)c3)c21

Result:
1. 13
2. 3
3. 0
4. 41

----------
# Tested on: RPS6KA4(Kin.Dom.1-N-terminal)
# TEST_CONTEXT: concentration: 1 μM, replicates: in singlicate; n = 1
MEASURE_NAME: %Inh
Number first, unit second.

Answered cases to consult:
COMPOUND | %Inh
O=C(Nc1n[nH]c2nc(-c3ccco3)c(Br)cc12)c1ccc(CN2CCCC2)cc1.O=C(O)[C@H](O)[C@@H](O)C(=O)O [SB-742352] | 10%
O=C(Nc1ccccc1)Nc1ccc(Oc2ccc3nccn3n2)cc1 | 50%

Provide %Inh for all items below, preserving their order.
1. Cl.c1ccc(Cn2ncc3cc(Nc4ncnc5ccccc45)ccc32)cc1 [GW273749]
2. Cc1cc(N2CCC(NS(=O)(=O)c3ccc(F)cc3)CC2)nc(Nc2cccc(C#N)c2)n1.O=C(O)C(F)(F)F [GSK1653537]
3. Cl.c1ccc(Cn2ccc3cc(Nc4ncnc5ccccc45)ccc32)cc1 [GW275568]
4. CC(=O)Nc1n[nH]c2ncc(-c3ccccc3)cc12 [SB-548492]
5. COC(=O)c1cccc(NC(=O)NCCNc2ccnc(Nc3ccc(F)cc3)n2)c1 [GSK1379883]
6. FC(F)(F)c1ccc(-c2nn3ncccc3c2-c2ccnc(Nc3cccc(C(F)(F)F)c3)n2)cc1 [GW828205]

Result:
3%
0%
4%
9%
23%
16%

----------
Heads up, these compounds all have Kd values measured for RIPK2.
Numbers only, in nM.

CHEM_SMILES | TARGET_OF_ASSAY | Kd [nM]
Oc1ccc2ncnc(Nc3ccc(OCc4ccccc4)cc3)c2c1 | RIPK2 | 8.1

Now consider a different compound.
Task: Param readout = Kd; param system = RIPK2; param query = `COc1cc2ncnc(Nc3ccc(OCc4ccccc4Br)c(Cl)c3)c2cc1OC.Cl` ; response: value
Result: 410

----------
# Tested on: LCK
# TEST_CONTEXT: concentration: 1 μM, replicates: in singlicate; n = 1
Kindly state %Inh for each of the entries shown.
Answers are plain numbers, in %.

CHEM_SMILES | MEASURE_NAME | ASSAY_RESULT
Cc1ccc(O)cc1Nc1cc(C(F)(F)F)nc2ccc(-c3ccncc3)cc12 | %Inh | 14
C[C@H]1CC[C@@H](C(=O)Nc2ccccc2)CN1c1cc(-c2ccc3c(N)n[nH]c3c2)nc(N)n1 | %Inh | 5
Nc1nc(-c2ccc3c(N)n[nH]c3c2)cc(N2CCC[C@@H](C(=O)Nc3ccccc3)C2)n1.O=C(O)C(F)(F)F.O=C(O)C(F)(F)F | %Inh | 0
Cc1ccc(NC(=O)c2cccc(C#N)c2)cc1-c1ccc(C(=O)Nc2ccncc2)cc1 | %Inh | 83

Field: %Inh. Fill in for each record below.
1. Fc1ccc(Nc2nccc(-c3c(-c4ccc(Cl)cc4)nn4ncccc34)n2)cc1F
2. CSc1ccc(NC2=C(c3ccccc3Cl)C(=O)NC2=O)cc1
3. CNc1nccc(-c2c(-c3ccc(F)cc3)ncn2C2CCN(C)CC2)n1
4. O=C(Nc1n[nH]c2nc(-c3ccco3)c(Br)cc12)c1ccc(CN2CCCC2)cc1.O=C(O)[C@H](O)[C@@H](O)C(=O)O

Result:
1. 11
2. 18
3. 0
4. 47

----------
# Test system: MLK1
# Construct: gene MAP3K9
# TEST_CONTEXT: concentration: 1 μM, replicates: in singlicate; n = 1
MEASURE_NAME: %Inh (%)
Give bare numbers, in %.

// worked examples, %Inh included
COMPOUND | MEASURE_NAME | ASSAY_RESULT
Oc1ccc2ncnc(Nc3ccc(OCc4ccccc4)cc3)c2c1 | %Inh | 0
O=C(Nc1ccccc1F)NC1CCN(c2ccnc(Nc3ccc(F)cc3)n2)C1 (stereo not drawn) | %Inh | 0
Fc1cccc(COc2ccc(Nc3ncnc4cc[nH]c34)cc2Cl)c1 | %Inh | 9
C[C@@H]1CCN(C(=O)CO)C[C@@H]1N(C)c1ncnc2[nH]ccc12 | %Inh | 0
CN1c2ccc(-c3ccc(C(=O)NCCO)cc3)cc2-c2[nH]ncc2S1(=O)=O | %Inh | 29
CS(=O)(=O)CCNCc1ccc(-c2ccc3ncnc(Nc4ccc(OCc5ccccc5)c(Cl)c4)c3c2)o1.Cl | %Inh | 0
Fc1cccc(COc2ccc(Nc3ncnc4sc(-c5ccc[nH]5)cc34)cc2Cl)c1 | %Inh | 7
c1ccc(-c2ccc3c(-c4ccnc(Nc5ccc6c(c5)OCCO6)n4)cnn3n2)cc1 | %Inh | 12

Field: next compound
Task: Quick one: %Inh of `CC(C)(C)c1ccc(-n2cnc3c(N)ncnc32)cc1` ?
Result: 2

----------
# System: PAK6
# TEST_CONTEXT: concentration: 1 μM, replicates: in singlicate; n = 1
MEASURE_NAME: %Inh
Report as: number unit

Batch lookup, %Inh per entry.
1. CNc1nccc(-c2c(-c3ccc(F)cc3)ncn2C2CCN(C)CC2)n1 [SB-222903]
2. CSc1nn2c(=O)cc(N3CCOCC3)nc2n1Cc1cccc(Cl)c1Cl [GSK2347225]
3. Cc1ccc(O)cc1Nc1cc(C(F)(F)F)nc2ccc(-c3ccncc3)cc12 [GW630823]
4. CC(C)(C)OC(=O)NC1CCCN(c2cc(-c3ccc4c(N)n[nH]c4c3)nc(N)n2)C1 (stereo not drawn) [GSK2286096]

Result:
0%
0%
20%
0%

Dear reader, for each entry below, please note its %Inh.
1. Nc1nc(-c2ccc3c(N)n[nH]c3c2)cc(N2CCC[C@@H](C(=O)Nc3ccccc3)C2)n1.O=C(O)C(F)(F)F.O=C(O)C(F)(F)F [GSK2288359]
2. Cn1ccc2ncnc(Nc3ccc(Oc4cccc(Cl)c4)c(Cl)c3)c21
3. COc1ccc(-c2oc3ncnc(N)c3c2-c2ccc(OC)cc2)cc1 [SB-589132]
4. Cl.O=S(=O)(c1cccc(F)c1)c1ccc(Nc2ncnc3cc(Br)sc23)cc1Cl [GSK306886]

Result:
1. 0%
2. 0%
3. 0%
4. 1%

Dear reader, for each entry below, please note its %Inh.
1. CC(=O)Nc1n[nH]c2ncc(-c3ccccc3)cc12 [SB-548492]
2. Fc1cccc(COc2ccc(Nc3ncnc4sc(-c5ccc[nH]5)cc34)cc2Cl)c1 [GW707818]
3. Nc1nc(-c2cccnc2)c(-c2ccnc3ccccc23)s1 [GW684083]
4. Fc1ccc(Nc2nccc(-c3c(-c4ccc(Cl)cc4)nn4ncccc34)n2)cc1F [GW829058]
5. CC(C)N1CCC(n2cnc(-c3ccc(F)cc3)c2-c2ccnc(N)n2)CC1 [SB-223132]
6. Clc1ccc(-c2cc(-c3c[nH]nc3-c3ccccn3)ccn2)cc1 [GW681251]

Result:
12%
11%
0%
34%
0%
1%

----------
# Test system: SGK2
pKd: −log10 of the molar value.
MEASURE_NAME: pKd

Task: Value lookup for pKd; key = CN1CCC(n2cnc(-c3ccc(F)cc3)c2-c2ccnc(NC3CCNCC3)n2)CC1 [SB-229482]
Result: < 5.00

----------
I'd be grateful if you could share measured %Inh for these entries.
# System: ROCK2
# TEST_CONTEXT: concentration: 1 μM, replicates: in singlicate; n = 1
One number for each entry, in %.

Consider the following illustrative entries.
CHEM_SMILES | TARGET_OF_ASSAY | MEASURE_NAME | ASSAY_RESULT
Cl.c1ccc(Cn2ccc3cc(Nc4ncnc5ccccc45)ccc32)cc1 | ROCK2 | %Inh | 0
CN1c2ccc(-c3ccc(C(=O)NCCO)cc3)cc2-c2[nH]ncc2S1(=O)=O | ROCK2 | %Inh | 41
Cc1ccc(C)c(NC(=O)NCCNc2ccnc(Nc3ccc(F)cc3)n2)c1 | ROCK2 | %Inh | 0
Fc1ccc(Nc2nccc(-c3c(-c4ccc(Cl)cc4)nn4ncccc34)n2)cc1F | ROCK2 | %Inh | 33
FC(F)(F)c1cc(Nc2nccc(-c3c(-c4ccc(Cl)cc4)nn4ncccc34)n2)ccc1Cl | ROCK2 | %Inh | 0

Report %Inh for every entry below.
1. N#Cc1ccc(Oc2ccc(Nc3ncnc4cc[nH]c34)cc2Cl)cc1
2. Fc1cccc(COc2ccc(Nc3ncnc4nn5ccccc5c34)cc2Cl)c1

Result:
[0, 33]

Record %Inh per entry; entries follow.
1. Nc1n[nH]c2nnc(-c3ccccc3)cc12
2. O=C(c1ccc(-c2cc(-c3c[nH]nc3-c3ccccn3)ccn2)cc1)N1CCCC1

Result:
1. 0
2. 0
